Assay: Cmax in Mongolian gerbils plasma
Format: ADME, Meriones unguiculatus
Settings: gerbil
READOUT KIND: Cmax (µM)
Reply with just the number (in µM).

Could you tell me which Cmax is on file for COc1ccc2[nH]c([S+]([O-])Cc3ncc(C)c(OC)c3C)nc2c1 (stereo unspecified) [OMEPRAZOLE] ?
10

###

Assay: Cmax in Mongolian gerbils plasma at 0.5 mg, ip
Type: ADME, organism-based, Meriones unguiculatus
Design: dose 0.5 mg, route intraperitoneal
Details: gerbil
READOUT KIND: Cmax (µM)
The reply should contain only the number, in µM.

Given COc1ccc2[nH]c([S+]([O-])Cc3ncc(C)c(OC)c3C)nc2c1 (stereo unspecified) [OMEPRAZOLE] , state its recorded Cmax.
20
